Reference for the values: ChEMBL document CHEMBL1128738

experimental.system: UniProt:P61169
Sequence (P61169 whole entry): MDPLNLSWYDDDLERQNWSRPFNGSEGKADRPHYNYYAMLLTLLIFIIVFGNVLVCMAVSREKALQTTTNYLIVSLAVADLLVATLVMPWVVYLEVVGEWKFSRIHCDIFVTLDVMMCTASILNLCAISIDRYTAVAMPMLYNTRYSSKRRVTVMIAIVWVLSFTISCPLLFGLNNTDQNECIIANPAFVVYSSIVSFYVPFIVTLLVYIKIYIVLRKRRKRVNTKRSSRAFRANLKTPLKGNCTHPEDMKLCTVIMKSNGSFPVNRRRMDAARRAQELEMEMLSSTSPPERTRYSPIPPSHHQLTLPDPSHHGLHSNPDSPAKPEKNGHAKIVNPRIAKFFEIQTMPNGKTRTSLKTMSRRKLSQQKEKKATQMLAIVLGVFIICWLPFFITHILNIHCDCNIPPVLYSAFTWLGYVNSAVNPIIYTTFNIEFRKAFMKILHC
measurement.protocol: Binding affinity towards Dopamine receptor D2 binding site using [3H]spiroperidol.
IC50 strictly under 800 nM means satisfied; at 800 nM or over means not satisfied.

// below: answered compounds
Fc1ccc(C2=CC3CCC(C2)N3CCCCc2cn(-c3ccc(F)cc3)c3ccccc23)cc1 (configuration not stated)    not satisfied
OC(CCCN1CCN(c2ncc(F)cn2)CC1)c1ccc(F)cc1 (configuration not stated)    not satisfied
COc1ccccc1C1CCN(CCCCc2c[nH]c3ccccc23)CC1    satisfied
Fc1ccc(N2CCN(CCCCc3c[nH]c4ccccc34)CC2)cc1    satisfied

Exercise: Just wondering, is IC50 of c1ccc2c(c1)COC21CCN(CCCCc2c[nH]c3ccccc23)CC1 below 800 nM?
Key: not satisfied

Exercise: Another compound to check: Fc1ccc(N2CCN(CCCCc3cn(-c4ccc(F)cc4)c4ccccc34)CC2)cc1
Key: not satisfied

Exercise: Another compound to check: Fc1ccc(C2CCN(CCCCc3cn(-c4ccc(F)cc4)c4ccccc34)CC2)cc1
Key: not satisfied

----------
Consider the following molecules; for each one, report its IC50.
experimental.system: Adrenergic receptor alpha-1 (Rattus norvegicus, UniProt P15823+P23944+P43140)
measurement.protocol: Binding affinity towards Alpha-1 adrenergic receptor binding site using [3H]prazosin.
Format: protein assay
Give bare numbers, in nM.

Guide cases for IC50, answers given:
c1ccc(C2CCN(CCCCc3c[nH]c4ccccc34)CC2)cc1    14
O=C(CC1CCN(CC2CC2)CC1)c1ccc(F)cc1    21
COc1ccccc1C1CCN(CCCCc2c[nH]c3ccccc23)CC1    11
Fc1ccc(C2=CC3CCC(C2)N3CCCCc2cn(-c3ccc(F)cc3)c3ccccc23)cc1 (stereo not drawn)    350
OC(CCCN1CCN(c2ncc(F)cn2)CC1)c1ccc(F)cc1 (stereo not drawn) [BMY-14802]    1500

Would you be so kind as to report IC50 for each listed record?
1. Fc1ccc(N2CCN(CCCCc3cn(-c4ccc(F)cc4)c4ccccc34)CC2)cc1
2. COc1ccccc1N1CCN(CCCCc2c[nH]c3ccccc23)CC1
3. Fc1ccc(C2=CCN(CCCCc3c[nH]c4ccccc34)CC2)cc1
4. c1ccc2c(c1)COC21CCN(CCCCc2c[nH]c3ccccc23)CC1
5. Fc1ccc(C2CCN(CCCCc3c[nH]c4ccccc34)CC2)cc1
6. Fc1ccc(C2CCN(CCCCc3cn(-c4ccc(F)cc4)c4ccccc34)CC2)cc1

Key:
[420, 2.7, 24, 30, 20, 220]

Would you be so kind as to report IC50 for each listed record?
1. c1ccc(CN2CCC3(CCCc4ccccc43)CC2)cc1
2. Fc1ccc(N2CCN(CCCCc3c[nH]c4ccccc34)CC2)cc1

Key:
1000
12

----------
experimental.system: 5-hydroxytryptamine receptor 2A (Rattus norvegicus, UniProt P14842)
Sequence (P14842 whole entry): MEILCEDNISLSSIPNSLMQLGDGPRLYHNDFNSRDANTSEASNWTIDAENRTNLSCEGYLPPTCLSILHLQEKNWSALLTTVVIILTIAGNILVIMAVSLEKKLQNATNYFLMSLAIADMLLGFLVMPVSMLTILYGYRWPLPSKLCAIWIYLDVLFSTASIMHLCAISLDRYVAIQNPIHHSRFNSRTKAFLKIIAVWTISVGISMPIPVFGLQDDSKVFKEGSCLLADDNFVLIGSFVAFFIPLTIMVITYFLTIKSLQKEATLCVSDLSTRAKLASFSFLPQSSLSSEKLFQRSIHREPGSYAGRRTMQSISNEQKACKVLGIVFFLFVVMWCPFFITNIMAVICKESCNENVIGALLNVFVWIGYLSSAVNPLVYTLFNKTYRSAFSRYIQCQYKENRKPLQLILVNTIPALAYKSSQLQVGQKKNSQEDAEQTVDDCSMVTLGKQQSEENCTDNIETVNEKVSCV
measurement.protocol: Binding affinity towards 5-hydroxytryptamine 2A receptor binding site using [3H]ketanserin.
endpoint.label: log10 IC50 (log10 of the value in nM)
For clarity, the numbers are log10 values of IC50 expressed in nM.

Guide cases for log10 IC50, answers given:
Fc1ccc(C2=CCN(CCCCc3c[nH]c4ccccc34)CC2)cc1    1.43
Fc1ccc(N2CCN(CCCCc3c[nH]c4ccccc34)CC2)cc1    1.15
O=C(CC1CCN(CC2CC2)CC1)c1ccc(F)cc1    1.82
OC(CCCN1CCN(c2ncc(F)cn2)CC1)c1ccc(F)cc1 (centres undefined)    2.92
COc1ccccc1N1CCN(CCCCc2c[nH]c3ccccc23)CC1    2.18
Fc1ccc(-n2cc(CCCCN3CCC4(CC3)OCc3ccccc34)c3ccccc32)cc1    3.30

Would you be so kind as to report log10 IC50 for each listed record?
1. c1ccc(CN2CCC3(CCCc4ccccc43)CC2)cc1
2. Fc1ccc(C2=CC3CCC(C2)N3CCCCc2cn(-c3ccc(F)cc3)c3ccccc23)cc1 (centres undefined)
3. Fc1ccc(C2CCN(CCCCc3cn(-c4ccc(F)cc4)c4ccccc34)CC2)cc1
4. COc1ccccc1C1CCN(CCCCc2c[nH]c3ccccc23)CC1
5. Fc1ccc(C2CCN(CCCCc3c[nH]c4ccccc34)CC2)cc1
6. c1ccc2c(c1)COC21CCN(CCCCc2c[nH]c3ccccc23)CC1
7. c1ccc(C2CCN(CCCCc3c[nH]c4ccccc34)CC2)cc1

Key:
1: 3.85; 2: 3.57; 3: 2.43; 4: 1.92; 5: 1.53; 6: 2.56; 7: 1.40

Exercise: Param readout= log10 IC50; system= 5-hydroxytryptamine receptor 2A (Rattus norvegicus, UniProt P14842); entry= Fc1ccc(N2CCN(CCCCc3cn(-c4ccc(F)cc4)c4ccccc34)CC2)cc1 ; returns value.
Key: 2.40
